Source of measurements: the supplement of paper PMC6805474

# System: Schistosoma mansoni schistosomula (NMRI)
# run.description: phenotypic severity score (0-4); higher = more antischistosomal effect, active = 2 or more
# applied.conditions: 24 h; 10 µM
property.name: phenotypic severity score

What reported phenotypic severity score corresponds to CCC(Sc1nc2ccccc2o1)C(=O)Nc1nnc(C)s1 (configuration not stated) on Schistosoma mansoni schistosomula (NMRI)?
0 (inactive)

As a next step, examine the compound that follows.
What reported phenotypic severity score corresponds to CC(C)n1nc(-c2cc3c(Cl)cccc3[nH]2)c2c(N)ncnc21 on Schistosoma mansoni schistosomula (NMRI)?
4 (active)

----------
# System: Schistosoma mansoni schistosomula (NMRI)
# run.description: phenotypic severity score (0-4); higher = more antischistosomal effect, active = 2 or more
# applied.conditions: 72 h; 10 µM
property.name: phenotypic severity score

Sample COC(=O)c1c(NC(=O)c2cc3ccccc3oc2=O)sc2c1CCN(Cc1ccccc1)C2 — what was its phenotypic severity score?
2 (active)

New cases:
Sample O=C(NCc1ccco1)N1CCN(Cc2ccc(Cl)s2)CC1 — what was its phenotypic severity score?
0 (inactive)

Sample CC(C)(C)n1nc(Cc2ccc(F)c(Cl)c2)c2c(N)ncnc21 — what was its phenotypic severity score?
0 (inactive)

Sample COc1cc(OC)cc(C(=O)NCC2Cc3cc(Cl)cc(-c4ccncc4)c3O2)c1 (stereo not given) — what was its phenotypic severity score?
0 (inactive)

Sample O=C(Nc1ccccc1-c1nc2c(C(=O)O)cccc2o1)c1ccccc1 — what was its phenotypic severity score?
0 (inactive)

----------
# Tested on: Schistosoma mansoni schistosomula (Liberian)
# run.description: drug effect (1 - score/DMSO control score) (fraction); higher = more antischistosomal effect, active = 0.5 or more; extreme values may be limits of the assay
# applied.conditions: 72 h; 10 µM
Mark one answer only. Choices: active, inactive

Examples with answers:
Outcome logged for Cc1nc(-c2cccc(NCc3ccccc3)c2)[nH]c1C in this assay:
inactive

Outcome logged for CC(C)(C)CN1C(=O)C(c2ccccc2)(c2ccccc2)N=C1N in this assay:
inactive

Outcome logged for Cc1ccc2c(c1C)NC(=O)C21NN=C(c2ccccc2)S1 (stereo not given) in this assay:
inactive

Outcome logged for Cc1cc(C)n2nc(C(=O)Nc3cc(C(F)(F)F)ccc3N3CCOCC3)nc2n1 in this assay:
inactive

Outcome logged for c1ccc(-c2[nH]c3ccccc3c2C(c2ccccn2)N2CCCC2)cc1 (stereo not given) in this assay:
active

New cases:
Outcome logged for CCCn1nnc(NC(=O)COc2ccc(C3CCCCC3)cc2)n1 in this assay:
inactive

Outcome logged for NS(=O)(=O)c1cncc(-c2ccc3nccc(-c4cn[nH]c4)c3n2)c1 in this assay:
inactive

----------
# Test system: Schistosoma mansoni schistosomula (Liberian)
# run.description: drug effect (1 - score/DMSO control score) (fraction); higher = more antischistosomal effect, active = 0.5 or more; extreme values may be limits of the assay
# applied.conditions: 72 h; 10 µM
Mark one answer only. Choices: class 1 for active, class 0 for inactive

Outcome logged for Cn1ccnc1CNCCS(=O)(=O)c1cccc(Nc2ccc(-c3cccc(F)c3)cn2)c1 in this assay:
class 0

Outcome logged for Brc1c(-c2ccc3c(c2)OCO3)nc2ncccn12 in this assay:
class 0

Outcome logged for CC(Oc1cccc(Cl)c1)C(=O)Nc1ccc2oc(-c3ccncc3)nc2c1 (stereo unspecified) in this assay:
class 1

Outcome logged for CC(C(=O)N1CCCC1)N1CCN(S(=O)(=O)c2ccc(C(C)(C)C)cc2)CC1 (stereo unspecified) in this assay:
class 0

Outcome logged for COc1ccc(-c2cnc3ccc(N4CCCC4)nn23)cc1OC in this assay:
class 1

Outcome logged for N#Cc1ccc(-c2cnc(N)c(-c3ccc(C(N)=O)cc3)n2)cc1 in this assay:
class 1

----------
Measured phenotypic severity score of individual entries
# Test system: Schistosoma mansoni schistosomula (NMRI)
# run.description: phenotypic severity score (0-4); higher = more antischistosomal effect, active = 2 or more
# applied.conditions: 72 h; 10 µM
// response body must contain only the number

Look over these answered cases.
Sample c1coc(CNc2nc(N3CCCCC3)nc3ccccc23)c1 — what was its phenotypic severity score?
4

Sample COc1cccc(CC(=O)N2CCC(n3c(C)nc4ccc(F)cc43)CC2)c1 — what was its phenotypic severity score?
1

Sample CC(=O)N1CCc2cc3nc(C)cc(C)c3cc21 — what was its phenotypic severity score?
0

Sample Cc1ccccc1C(=O)N1N=C(Nc2ccccc2)SC1(C)C — what was its phenotypic severity score?
0

Sample CCNC(=O)C(C)Nc1nc(-c2cccnc2)nc2sc(C)c(C)c12 (stereo unspecified) — what was its phenotypic severity score?
0

Sample Cn1ncc2c(N3CCOCC3)nc(NCCc3c[nH]c4ccccc34)nc21 — what was its phenotypic severity score?
4

Sample CCCCCCCCCCCCCCCCOP(=O)([O-])OCC[N+](C)(C)C — what was its phenotypic severity score?
0

Sample Nc1ncnc2c1ncn2C[C@@H](O)[C@@H](O)C(=O)O — what was its phenotypic severity score?
0

New cases:
Sample O=C(C1CCN(c2nnc(-n3cccc3)s2)CC1)N1CCC(Cc2ccccc2)CC1 — what was its phenotypic severity score?
0

Sample COc1nc2ccc(Br)cc2cc1[C@@H](c1ccccc1)[C@@](O)(CCN(C)C)c1cccc2ccccc12 — what was its phenotypic severity score?
4

----------
# Tested on: Schistosoma mansoni schistosomula (NMRI)
# run.description: phenotypic severity score (0-4); higher = more antischistosomal effect, active = 2 or more
# applied.conditions: 48 h; 10 µM
Mark one answer only. Choices: True = active, False = inactive

Outcome logged for CCOc1ccc(OCC(=O)Nc2cc(C)cc(C)c2)cc1 in this assay:
False

Outcome logged for COc1cncc(-c2cncc(N3CCN(c4ccncc4)CC3)n2)c1 in this assay:
False

Outcome logged for COc1cc(OC)cc(C(=O)NCC2Cc3cc(Cl)cc(-c4ccncc4)c3O2)c1 (stereo unspecified) in this assay:
False

Outcome logged for Cc1nc2ccccn2c1C(=O)NCc1ccc(Cl)cc1 in this assay:
False

Outcome logged for CS(=O)(=O)c1ccccc1C(=O)N(Cc1ccccc1)c1ccccc1 in this assay:
False

New cases:
Outcome logged for O=C(Nc1cccc(-c2ccc(NCCCN3CCCC3)nc2)c1)c1ccccc1 in this assay:
True

Outcome logged for Cc1ccc(-c2nc(CN(Cc3ccccn3)C(C)C)cs2)o1 in this assay:
False

Outcome logged for COCC(C)NC(=O)CSc1ncnc2sc(-c3ccccc3)cc12 (stereo unspecified) in this assay:
False

Outcome logged for CN1CCC(c2cc(-c3ccncc3)c(-c3ccc(F)cc3)[nH]2)CC1 in this assay:
False

Outcome logged for CCC(NC(=O)c1ccccc1NC(=O)c1ccc(C)cc1)C(=O)OC (stereo unspecified) in this assay:
False

Outcome logged for Cc1cc2ccccc2n1CC(=O)N1CC(C(=O)N2CCCCC2)Oc2ccccc21 (stereo unspecified) in this assay:
False

----------
# System: Schistosoma mansoni schistosomula (NMRI)
# run.description: phenotypic severity score (0-4); higher = more antischistosomal effect, active = 2 or more
# applied.conditions: 48 h; 10 µM
Measured phenotypic severity score of individual entries
// response body must contain only the number

What reported phenotypic severity score corresponds to O=C(NCCc1ccn(-c2ccccc2)n1)C1CCCCC1 on Schistosoma mansoni schistosomula (NMRI)?
0

What reported phenotypic severity score corresponds to O=C(N[C@H](Cc1ccccc1)C(=O)Nc1ccccc1N1CCOCC1)c1cccs1 on Schistosoma mansoni schistosomula (NMRI)?
0

What reported phenotypic severity score corresponds to CNc1snc(C)c1C(=O)NCCOc1ccc(OC)cc1 on Schistosoma mansoni schistosomula (NMRI)?
0

What reported phenotypic severity score corresponds to O=C(Nc1cccc(Cl)c1)c1cnc(N2CCN(c3ccncc3)CC2)c(Cl)c1 on Schistosoma mansoni schistosomula (NMRI)?
4

What reported phenotypic severity score corresponds to CC1COC2(CCN(c3nc(=O)c4cc(C(F)(F)F)cc([N+](=O)[O-])c4s3)CC2)O1 (stereo not drawn) on Schistosoma mansoni schistosomula (NMRI)?
0

New cases:
What reported phenotypic severity score corresponds to COc1cc(C(F)(F)F)nc2ccc(C)c(N)c12 on Schistosoma mansoni schistosomula (NMRI)?
0

What reported phenotypic severity score corresponds to CCCn1c(CNc2ccccc2O)nc2ccccc21 on Schistosoma mansoni schistosomula (NMRI)?
0

What reported phenotypic severity score corresponds to Oc1c(I)cc(I)c2cccnc12 on Schistosoma mansoni schistosomula (NMRI)?
1

What reported phenotypic severity score corresponds to O=C(NC1CC1)c1ccc(N2CCOc3ccc(Cl)cc32)s1 on Schistosoma mansoni schistosomula (NMRI)?
0

What reported phenotypic severity score corresponds to CCCn1nnc(NC(=O)COc2ccc(C3CCCCC3)cc2)n1 on Schistosoma mansoni schistosomula (NMRI)?
0

----------
Measured phenotypic severity score of individual entries
# Tested on: Schistosoma mansoni schistosomula (NMRI)
# run.description: phenotypic severity score (0-4); higher = more antischistosomal effect, active = 2 or more
# applied.conditions: 72 h; 10 µM
// response body must contain only the number

Look over these answered cases.
Sample COc1cc2ncnc(NC3CCN(Cc4ccccc4)CC3)c2cc1OC — what was its phenotypic severity score?
0

Sample Cc1ccc(NC(=O)CC2COc3ccccc3O2)cc1Cl (stereo unspecified) — what was its phenotypic severity score?
0

Sample CCCn1nnc(NC(=O)COc2ccc(C3CCCCC3)cc2)n1 — what was its phenotypic severity score?
0

Sample CC(C)N=c1cc2n(-c3ccc(Cl)cc3)c3ccccc3nc-2cc1Nc1ccc(Cl)cc1 — what was its phenotypic severity score?
4

Sample Cc1ccc2cc(C3NC(=O)c4ccccc4N3)c(Cl)nc2c1 (stereo unspecified) — what was its phenotypic severity score?
1

New cases:
Sample Clc1ccc(Cl)c(CO[C@H]2CCCC[C@@H]2n2ccnc2)c1 — what was its phenotypic severity score?
0

Sample Cc1nnc(NCc2cccc(Cl)c2)c2ccccc12 — what was its phenotypic severity score?
0

Sample COc1ccc(Nc2ccccc2NC(=O)c2ccc(O)nc2)cc1 — what was its phenotypic severity score?
0

Sample Nc1ncnc2c1c(-c1cnc3ccccc3c1)nn2CC1CCNCC1 — what was its phenotypic severity score?
0

Sample CNC(=O)C1Cc2ccccc2N1C(=O)Cc1ccc(F)cc1 (stereo unspecified) — what was its phenotypic severity score?
0

Sample CC(=O)NC[C@@H]1CN(c2ccc(N3CCOCC3)c(F)c2)C(=O)O1 — what was its phenotypic severity score?
0
